Origin of measurements: PubChem BioAssay

RUN DESCRIPTION: RAM pathway blockade in budding yeast – dse1pr::URA3 reporter, 5-FOA selection, pilot screen (AID 869);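 further: 0% = DMSO wells with no growth and 100% = 10 µM 1-NA-PP1 with full growth; RAM network block rescues cells from 5-FOA so hits raise OD615 growth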
STUDY CONDITIONS: S. cerevisiae dse1pr::URA3 5-FOA growth, OD615, 2 d; at 10 µM; stronger effect = higher value; strain carries analog-sensitive mutant Cbk1 kinase
QUANTITY MEASURED: inhibition (%)
Lab book: enter the figure in %, no units written.

Need inhibition, item Cn1c(=NC(=O)C2CC2)sc2cc(F)cc(F)c21
1.81

Sample COc1ccc(NC(=O)CN(c2ccc(C(C)C)cc2)S(=O)(=O)c2c(C)noc2C)cc1OC — what was its inhibition?
3.67

Query (compound): CCn1cc(CNC(=O)c2cc(Cl)ccc2OC)c(C)n1 ; field requested: inhibition
-0.445

Which inhibition is listed for Cn1cccc1Cc1nnc(SCC(=O)NCc2ccc(F)cc2)n1-c1ccc(F)cc1 ?
2.13

* * *

RUN DESCRIPTION: growth suppression of yeast trafficking mutant, preliminary HTS, modulators of trafficking downstream of Golgi apparatus project, 1536-format plate, OD 615 nm (AID 637)
STUDY CONDITIONS: yeast transport mutant growth, absorbance 615 nm, 18 h; stronger effect = higher value
What inhibition was measured for each of the following?
Dear colleague, please return just the value in %, with no unit written.

Recorded inhibition for COc1ccccc1NC(=O)N1CCN(c2cccc(C(F)(F)F)c2)CC1 , please?
-10.3

Query: inhibition; subject: CC12CN3CCN(CC(C3)C1(O)CN1CCCCC1)C2 (centres undefined)
-0.18

Item CCc1nn(CC(=O)NCCCN2CCc3ccccc3C2)c(=O)c2cc3sccc3n12 has what recorded inhibition?
1

// lookup inhibition for CC(=O)NC(CCS(C)(=O)=O)C(=O)Nc1cccc(C)c1 (centres undefined)
1.83

Given the entry CCOC(=O)C(CC)n1nc(C)n2c(cc3sccc32)c1=O (centres undefined) , report its measured inhibition.
1

For Clc1ccc(Nc2ncnc3c2cnn3-c2ccccc2)cc1 , what is its reported inhibition?
0

Which inhibition is reported for this compound? CC(Sc1n[nH]c(=O)[nH]c1=O)C(=O)OCc1ccccc1 (centres undefined)
-0.18

Fill in: inhibition of CCOC(=O)c1[nH]c(C)c(C(=O)NC)c1C is ___
-1.17

Need inhibition, item Cc1ccc(N=Cc2ccc(O)cc2O)cc1F
6.39

What inhibition value was documented for this compound, CC(=O)n1cc(-c2ccncc2)c2ccccc21 ?
-3

// lookup inhibition for c1nc(NCC2(N3CCOCC3)CCCCC2)c2ccsc2n1
-2.54

Look up inhibition for this compound: O=C(Nc1cnn(Cc2ccc(Cl)cc2Cl)c1)c1noc2c1CCCC2
-3.17

Look at this compound and give its reported inhibition. CCCCOc1ccc(-c2ncc(Cl)cn2)cc1
0.83

What does the data say about its inhibition? Entry: O=C(CSc1nc(-c2ccco2)cc(C(F)(F)F)n1)NCCCn1ccnc1
-2.3

Please report the recorded inhibition for Cc1noc(C)c1S(=O)(=O)N1CCN(Cc2ccc3c(c2)OCO3)CC1 .
0

May I ask what inhibition has been recorded for CCc1ccc(N(CC(=O)NC2CCCC2)S(=O)(=O)c2c(C)noc2C)cc1 ?
-0.83

Please look up its inhibition: Cc1nc2sc(C(c3cccs3)N3CCOCC3)c(O)n2n1 (centres undefined)
-0.83

I would be grateful if you could share the reported inhibition for CN(C1CCCCC1)S(=O)(=O)c1ccc(S(=O)(=O)N2CCN(CCC#N)CC2)cc1 .
4.26

Recorded inhibition of Cc1cc2cc(CCNC(=O)CC(C)C)c(=O)[nH]c2cc1C , please.
5

* * *

RUN DESCRIPTION: viability of HCT116 without oncogenic beta-catenin – human colon tumor cells, pilot screen (AID 823);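 further: 0% = wells killed by 20 µM Hyamine and 100% = untreated DMSO cell wells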
STUDY CONDITIONS: HCT116 beta-catenin knockout viability, CellTiter-Glo, 60 h; at 10 µM; stronger effect = lower value
Results filed as inconclusive are left out.
Provide the recorded viability for the entries that follow.
Only the number, expressed in %, is required.

Sample COc1ccc(-c2nc(C)c(C(C)=O)n2O)cc1OC — what was its viability?
96.5

# get_value(readout='viability', item= COc1ccccc1N1CCN(C(=O)CCCn2c(=O)[nH]c3ccsc3c2=O)CC1 )
98.6

Reported viability for COc1cccc(CNC(=O)Cn2c(=O)oc3ccccc32)c1OC : what is it?
104

* * *

RUN DESCRIPTION: Her2 expression decrease, cell viability multiplex – SKBR3 breast tumor cells, AlphaScreen, ATP viability, primary screen (AID 461);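 further: percent of carrier control wells set as 100% viability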
STUDY CONDITIONS: SKBR3 Her2 protein level, 18-24 h, measured here: SKBR3 viability, ATP luminescence, at 10 µM
For each record, check the reported viability: if it is below 90% write 1.0, else write 0.0.

Identify whether the molecule COc1cccc(C2=NOC(C(=O)N3CCc4ccccc4C3)C2)c1 (stereo not drawn) records viability below 90%.
1.0

A record lists CCOc1ccc(N(CC(=O)NC2CCCCC2)S(=O)(=O)c2c(C)noc2C)cc1 . Is its viability below 90%?
1.0

Quick check: viability of COc1ccc(S(=O)(=O)NCc2ccc3c(c2)OCO3)cc1C(=O)O under 90%?
0.0

Report whether reported viability is lower than 90% (strictly) for CC1(C)C(c2ccccc2)=NC(c2ccccc2)N1O (stereo not drawn)
1.0

Would you kindly verify if viability of O=C1CCCC2=C1C(c1cccs1)n1nc(SCc3ccccc3F)nc1N2 (stereo not drawn) is strictly less than 90%?
1.0

* * *

Assignment: determine reported viability for the given compounds.
RUN DESCRIPTION: Her2 expression decrease, cell viability multiplex – SKBR3 breast tumor cells, AlphaScreen, ATP viability, primary screen (AID 461);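 further: percent of carrier control wells set as 100% viability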
STUDY CONDITIONS: SKBR3 Her2 protein level, 18-24 h, measured here: SKBR3 viability, ATP luminescence, at 10 µM
Kindly provide the numeric value in % only, without the unit symbol.

For the compound shown here, CCOC(=O)CSc1nnc(Cn2c(=O)sc3ccccc32)n1C , give the reported viability.
96

Request the reported viability associated with COc1cccc(NC(=O)CSc2nnc(Cc3cccn3C)n2-c2ccc(F)cc2)c1
94.5

# get_value(readout='viability', item= Cc1ccc(-c2cc(C(=O)Nc3cc(C)on3)c3ccccc3n2)c(C)c1 )
77.5

Form field: reported viability of COc1cc(C(=O)Nc2cccc(-c3nncn3C)c2)cc(OC)c1OC
102

Requested read-out: viability. Entry: CCOC(=O)c1cc2c(=O)n3ccccc3nc2n(CC2CCCO2)c1=NC(C)=O (centres undefined)
99

Please look up its viability: COc1ccc(CNC(=O)c2cnc3n(c2=O)CCS3)cc1
81.5

viability for CC1=C(C(N)=O)C(c2ccncc2)n2nc(-c3ccccc3Cl)nc2N1 (centres undefined) ?
96

Could you share which viability value was measured for Cc1ccc(CNC(=O)C2CCCN(S(=O)(=O)c3cnc[nH]3)C2)cc1 (centres undefined) ?
94

Look up viability for this compound: COc1ccc(OCc2nc(C#N)c(N3CCN(c4ccc(OC)cc4)CC3)o2)cc1
94

Reported viability, compound c1ccc(C(Cc2nc(-c3ccccn3)no2)c2ccccc2)cc1 : ____
96

Query: viability; subject: Cc1noc(/C=C/N(C)C)c1S(=O)(=O)N1CCCC(C(=O)N2CCc3ccccc32)C1 (centres undefined)
104

Could you tell me which viability is on file for COc1ccc2c(c1)CCc1cc(C(=O)N3CCN(c4ccc(N5CCOCC5)nn4)CC3)sc1-2 ?
93.5

viability lookup needed for Cc1ccc(N=Cc2ccc[nH]2)c(O)c1 , thanks.
96

Look at this compound and give its reported viability. COc1ccccc1OCC(=O)N1CCN(c2ccccc2OC)CC1
93.5

Need viability, item COc1ccc(NC(=O)CSc2nnc(Cc3cccn3C)n2-c2ccc(F)cc2)cc1
96

May I ask what viability has been recorded for COc1ccccc1S(=O)(=O)Cc1ccc(C(=O)N2CCN(c3ccccn3)CC2)o1 ?
101

# query: viability of entry CCCc1cc(=O)oc2c(C)c3occ(C)c3cc12
112

Which value of viability has been reported for COc1ccc(N(C)C(=O)CCS(=O)(=O)c2cccc3nonc23)c(OC)c1 in the records?
89

Tell me the measured viability of O=C(c1cccc(F)c1)N1CCc2ccccc21 , please.
96.5

Returns the measured viability for the input compound. Input: COc1ccc(-c2noc(COc3ccc(Cl)c(C)c3)n2)cc1
91

Please report the recorded viability for CCOc1ccc(CCN2C(=O)C3C4C=CC(C4)C3C2=O)cc1OCC (centres undefined) .
96

I'd like to know its viability. The compound in question is Nc1nc(N2CCCCC2)nc(N(c2ccccc2)c2ccccc2)n1
107

Look up viability for this compound: Cc1cccc(-n2ncc3c(NCCCO)ncnc32)c1
95.5

State the recorded viability for this entry: CCn1c(C(=O)N2CCC(C(=O)N3CCN(c4ccccn4)CC3)CC2)cc2sccc21
95

Need viability of CCOC(=O)c1ccc2[nH]c3c(c2c1)CN(C)CC3 , thanks.
94

Requested read-out: viability. Entry: Cc1nnc(NC(=O)CSc2cn(CCNC(=O)c3ccccc3)c3ccccc23)s1
83.5

Field request: viability | item: CCC(C)NC(=O)CS(=O)(=O)Cc1nc(-c2cccc(OC)c2)oc1C (centres undefined)
80.5

Item under review: O=C(Nc1ccc2snnc2c1)N1CCN(c2ccccc2)CC1 . Reported viability?
81.5

Which value of viability has been reported for CCOc1ccc(NC2c3ccccc3C(=O)N2Cc2ccco2)cc1 (centres undefined) in the records?
83.5
